Test system: symmetrical dimethylation of arginine (Di-Methyl Histone H4 Arginine 3) in cell line TE11
assayProcedure: Revised PRMT5 Biomarker Assay (Di-Methyl Histone H4 Arginine 3 immunofluorescence)
Type: cell-based
conditionsUsed: Homo sapiens, TE-11; TE11 cells, 72 hours, PerkinElmer Envision fluorescence intensity, corrected for Hoechst 33342; read-out: IC50 - plate-reader based
pIC50: −log10 of the molar value. Where a name gives a salt, the structure may show the parent alone.
Overview of reported pIC50 across a group of molecules:
endpointName: pIC50

{"molecule": "O=C(NC[C@@H](O)[C@@H]1Cc2ccccc2CN1)c1ccc(C(=O)N2C3CCC2COC3)cc1 [Example 49, hydrochloride]", "numericValue": 8.22}
{"molecule": "COC(=O)N1CCC(Oc2cc(C(=O)NC[C@@H](O)[C@@H]3Cc4ccccc4CN3)ccn2)CC1", "numericValue": 8.15}
{"molecule": "O=C(NC[C@@H](O)[C@@H]1Cc2ccccc2CN1)c1ccc(C(=O)N2CCS(=O)(=O)CC2)cc1", "numericValue": 6.60}
{"molecule": "CCOc1cc(C(=O)N2C3CCC2COC3)ccc1C(=O)NC[C@@H](O)[C@@H]1Cc2ccccc2CN1 [Example 50, hydrochloride]", "numericValue": 9.52}
{"molecule": "CCOc1cc(C(=O)N2C3CCC2COC3)ccc1C(=O)NC[C@@H](O)[C@@H]1Cc2ccc(C)cc2CN1", "numericValue": 9.00}
{"molecule": "O=C(NC[C@@H](O)[C@@H]1Cc2ccccc2CN1)c1ccnc(OC2CCNCC2)c1", "numericValue": 7.06}
{"molecule": "O=C(NC[C@@H](O)[C@@H]1Cc2ccccc2CN1)c1ccc(C(=O)N2C3CCC2COC3)cc1Cl", "numericValue": 8.40}

###

systemTested: Full-length PRMT5 enzyme (NCBI Reference sequence NP_006100.2) co-expressed with His6-MEP50 (Homo sapiens (Human), UniProt O14744)
Sequence (O14744 whole entry): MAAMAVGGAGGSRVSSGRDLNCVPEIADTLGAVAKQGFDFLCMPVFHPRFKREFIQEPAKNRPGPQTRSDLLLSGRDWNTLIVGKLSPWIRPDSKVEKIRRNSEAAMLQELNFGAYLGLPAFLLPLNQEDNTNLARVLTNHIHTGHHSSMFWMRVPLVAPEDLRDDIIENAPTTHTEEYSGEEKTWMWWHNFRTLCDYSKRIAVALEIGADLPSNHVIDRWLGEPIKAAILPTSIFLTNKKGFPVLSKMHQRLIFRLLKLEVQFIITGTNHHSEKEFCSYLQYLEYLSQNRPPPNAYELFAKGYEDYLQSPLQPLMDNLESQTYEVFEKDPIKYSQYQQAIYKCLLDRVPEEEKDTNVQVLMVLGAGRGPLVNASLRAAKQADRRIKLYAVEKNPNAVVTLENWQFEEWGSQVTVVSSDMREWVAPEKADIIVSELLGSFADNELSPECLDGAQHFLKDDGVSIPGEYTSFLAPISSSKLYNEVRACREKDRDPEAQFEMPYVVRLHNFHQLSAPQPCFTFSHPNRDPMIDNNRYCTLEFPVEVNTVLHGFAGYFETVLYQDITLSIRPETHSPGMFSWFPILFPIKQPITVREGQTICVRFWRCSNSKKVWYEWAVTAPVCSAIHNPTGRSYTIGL
Sequence (Q9BQA1 whole entry partner): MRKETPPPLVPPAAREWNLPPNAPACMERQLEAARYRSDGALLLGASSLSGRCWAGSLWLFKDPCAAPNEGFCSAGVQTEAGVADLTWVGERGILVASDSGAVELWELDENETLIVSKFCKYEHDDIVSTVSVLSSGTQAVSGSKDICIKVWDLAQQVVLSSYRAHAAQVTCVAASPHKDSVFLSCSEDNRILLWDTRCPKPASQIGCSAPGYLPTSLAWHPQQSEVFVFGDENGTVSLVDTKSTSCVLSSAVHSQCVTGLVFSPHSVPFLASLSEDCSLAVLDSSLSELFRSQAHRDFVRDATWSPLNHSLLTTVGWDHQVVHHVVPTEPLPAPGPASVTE
assayProcedure: Revised PRMT5 Biochemical Assay
conditionsUsed: 1 μM peptide substrate, 1 μM S-Adenosyl methionine, 4 hours at 37 degree Celsius, Transcreener EPIGEN fluorescence polarisation
Counter-ions that a name gives are not always drawn.
endpointName: log10 of IC50 (log10 of the value in nM)

{"molecule": "O=C(NC[C@@H](O)[C@@H]1Cc2ccccc2CN1)c1ccc(C(=O)N2C3CCC2COC3)c(C(F)F)c1 [Example 85]", "log10 of IC50": 2.45}
{"molecule": "O=C(NC[C@@H](O)[C@@H]1Cc2ccccc2CN1)c1ccccc1F [Example 9]", "log10 of IC50": 4.10}
{"molecule": "O=C(NC[C@@H](O)[C@@H]1Cc2ccccc2CN1)c1ccc(OCC2CC2)nc1 [Example 58]", "log10 of IC50": 2.82}
{"molecule": "O=C(NC[C@@H](O)[C@@H]1Cc2ccccc2CN1)c1ccnc(C(F)(F)F)c1 [Example 86, dihydrochloride]", "log10 of IC50": 3.58}
{"molecule": "COC(=O)N1CCC(Oc2cccc(C(=O)NC[C@@H](O)[C@@H]3Cc4ccccc4CN3)c2)CC1 [Example 60]", "log10 of IC50": 3.52}
{"molecule": "O=C(NC[C@@H](O)[C@@H]1Cc2ccccc2CN1)c1ccccc1C(F)(F)F [Example 5]", "log10 of IC50": 4.71}
{"molecule": "O=C(NC[C@@H](O)[C@@H]1Cc2ccccc2CN1)c1ccc(C(=O)N2C3CCCC2COC3)cc1 [Example 103]", "log10 of IC50": 1.81}
{"molecule": "CC(=O)N1CCC(c2nc3cc(C(=O)NC[C@@H](O)[C@@H]4Cc5ccccc5CN4)ccc3[nH]2)CC1 [Example 88]", "log10 of IC50": 2.27}
